Reference source: patent US20240309103A1

Biological target: T1, mfNPR1-mFc:hANP complex (monkey; human, UniProt P01160 124-151)
T1 construct: also called monkey NPR1 complexed to ANP
Test: SPR, mAb captured, 37C
Measurement Label: Kd

{"columns": ["Binder", "Experimental Value"],
 "data": [
  ["mAb22035 (antibody, human IgG4, V domains shown) VH: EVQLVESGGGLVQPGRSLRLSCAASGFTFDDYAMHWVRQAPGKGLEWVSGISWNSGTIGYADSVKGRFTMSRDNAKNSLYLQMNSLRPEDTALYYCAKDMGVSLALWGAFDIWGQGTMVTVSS VL: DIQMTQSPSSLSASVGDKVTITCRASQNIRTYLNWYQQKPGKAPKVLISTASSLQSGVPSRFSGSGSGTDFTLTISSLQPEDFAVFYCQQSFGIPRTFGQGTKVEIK", "0.302 nM"],
  ["mAb22805 (antibody, human IgG4, V domains shown) VH: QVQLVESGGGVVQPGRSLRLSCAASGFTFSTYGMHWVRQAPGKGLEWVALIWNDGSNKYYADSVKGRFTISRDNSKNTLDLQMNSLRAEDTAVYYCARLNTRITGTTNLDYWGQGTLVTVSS VL: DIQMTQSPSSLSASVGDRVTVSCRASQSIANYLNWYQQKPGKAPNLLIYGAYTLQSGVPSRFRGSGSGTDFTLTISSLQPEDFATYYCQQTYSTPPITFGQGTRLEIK", "3.3 nM"],
  ["mAb22809 (antibody, human IgG4, V domains shown) VH: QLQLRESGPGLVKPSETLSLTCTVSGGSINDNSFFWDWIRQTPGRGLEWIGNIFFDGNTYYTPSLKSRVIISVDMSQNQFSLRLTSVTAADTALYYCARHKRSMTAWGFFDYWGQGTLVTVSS VL: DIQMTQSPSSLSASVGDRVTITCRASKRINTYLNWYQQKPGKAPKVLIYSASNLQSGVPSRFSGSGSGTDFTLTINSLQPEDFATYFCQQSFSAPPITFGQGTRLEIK", "3.7 nM"],
  ["mAb25508 (antibody, human IgG4, V domains shown) VH: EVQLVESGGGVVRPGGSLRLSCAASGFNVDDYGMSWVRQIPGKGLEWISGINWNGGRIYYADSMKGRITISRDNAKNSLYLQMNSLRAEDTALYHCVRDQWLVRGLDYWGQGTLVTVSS VL: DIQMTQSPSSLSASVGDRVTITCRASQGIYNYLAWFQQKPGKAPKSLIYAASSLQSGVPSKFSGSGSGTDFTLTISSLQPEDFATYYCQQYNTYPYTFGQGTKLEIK", "0.355 nM"],
  ["mAb25502 (antibody, human IgG4, V domains shown) VH: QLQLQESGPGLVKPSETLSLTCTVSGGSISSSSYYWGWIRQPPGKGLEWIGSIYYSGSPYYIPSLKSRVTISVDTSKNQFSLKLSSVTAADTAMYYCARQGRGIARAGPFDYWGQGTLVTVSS VL: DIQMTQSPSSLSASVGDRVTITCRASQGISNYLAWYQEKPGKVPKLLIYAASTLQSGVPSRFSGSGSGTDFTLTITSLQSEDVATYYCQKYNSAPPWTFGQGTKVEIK", "5.76 nM"],
  ["mAb25497 (antibody, human IgG4, V domains shown) VH: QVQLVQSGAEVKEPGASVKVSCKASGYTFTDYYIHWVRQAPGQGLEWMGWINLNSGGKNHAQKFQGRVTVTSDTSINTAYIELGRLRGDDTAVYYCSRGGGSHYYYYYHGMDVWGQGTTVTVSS VL: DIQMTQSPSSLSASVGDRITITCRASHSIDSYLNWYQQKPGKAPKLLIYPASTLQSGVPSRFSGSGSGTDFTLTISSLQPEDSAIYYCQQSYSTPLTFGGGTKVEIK", "2.6 nM"],
  ["mAb25491 (antibody, human IgG4, V domains shown) VH: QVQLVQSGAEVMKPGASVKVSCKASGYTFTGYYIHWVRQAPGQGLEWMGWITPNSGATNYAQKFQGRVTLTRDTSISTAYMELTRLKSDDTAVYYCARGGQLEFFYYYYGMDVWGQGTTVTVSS VL: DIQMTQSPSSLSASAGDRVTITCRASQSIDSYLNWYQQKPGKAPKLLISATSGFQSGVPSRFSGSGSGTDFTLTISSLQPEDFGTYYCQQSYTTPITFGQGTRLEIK", "1.49 nM"],
  ["mAb22033 (antibody, human IgG4, V domains shown) VH: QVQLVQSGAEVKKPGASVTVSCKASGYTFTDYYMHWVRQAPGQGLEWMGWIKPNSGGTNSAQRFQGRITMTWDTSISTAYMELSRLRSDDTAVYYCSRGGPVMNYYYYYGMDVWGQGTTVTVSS VL: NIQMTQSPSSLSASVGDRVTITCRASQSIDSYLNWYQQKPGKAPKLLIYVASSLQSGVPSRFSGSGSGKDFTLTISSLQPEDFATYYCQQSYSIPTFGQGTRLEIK", "1.31 nM"],
  ["mAb25479 (antibody, human IgG4, V domains shown) VH: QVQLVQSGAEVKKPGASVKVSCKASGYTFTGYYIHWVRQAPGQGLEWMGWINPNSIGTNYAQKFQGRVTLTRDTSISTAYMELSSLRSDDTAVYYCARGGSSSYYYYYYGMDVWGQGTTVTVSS VL: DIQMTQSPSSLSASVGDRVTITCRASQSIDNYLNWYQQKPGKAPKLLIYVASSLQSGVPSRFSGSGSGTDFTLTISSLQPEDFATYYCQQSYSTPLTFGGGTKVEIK", "4 nM"]
]}
